# METHOD_DESCRIPTION: amyloid nucleation score (Sup35N fusion, yeast selection) (log enrichment); library NNK3; higher = more nucleation; inactive = no reads after selection;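 note: zero at mode of non-aggregating sequences after 7 days selection at 30°C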
MEASURE: amyloid nucleation score

Some sequences with recorded amyloid nucleation score:
[[record]]
chain_sequence = "SLLSIFVKGARLQISDVSQG"
result = 0.773

[[record]]
chain_sequence = "ILSSGLGKHTGLIIAYESAR"
result = "inactive"

[[record]]
chain_sequence = "MNVGAIGKSSFMY"
result = "inactive"

[[record]]
chain_sequence = "YVSLVSLCMCIRLQGEFLYG"
result = 1.24

[[record]]
chain_sequence = "YVLELGAGGPKNMIHDMNAD"
result = "inactive"


Exam item: Requested read-out: amyloid nucleation score. Entry: RWRIEEPTI
Marked response: inactive

Exam item: Form field: reported amyloid nucleation score of FSKFQTYVSHMVVYGIMSGN
Marked response: inactive

Exam item: Which amyloid nucleation score reading was recorded for the sequence RVAQTAVRVSWALDRFYLWD ?
Marked response: inactive

Exam item: I have this sequence here, IWGPTADKSRSVIGSVIKQG , and I need its recorded amyloid nucleation score.
Marked response: inactive

Exam item: Give its amyloid nucleation score value. Item: KFTYSLKLCADFGFLSTWKV
Marked response: inactive

Exam item: Can you look up the measured amyloid nucleation score of IRYYFRHLG for me?
Marked response: -0.203

Exam item: Need amyloid nucleation score of PVLGSHRIVLSFDKIYLSRD , thanks.
Marked response: inactive

Exam item: # query: amyloid nucleation score of entry CFYEGYWREITNMAFLILRP
Marked response: inactive

Exam item: Any idea what its amyloid nucleation score is? The sequence is NCLRLYQGSGKMFIIV
Marked response: inactive

Exam item: I would be grateful if you could share the reported amyloid nucleation score for DLVFWTINWSPGAHGTTSSG .
Marked response: inactive
